B1: VH:VL chains; a variant is named by its letters at X, in order (parent)
chain 1: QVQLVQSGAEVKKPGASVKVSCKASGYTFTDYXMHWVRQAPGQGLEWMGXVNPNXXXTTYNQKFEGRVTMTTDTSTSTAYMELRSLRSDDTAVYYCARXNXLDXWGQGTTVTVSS
chain 2: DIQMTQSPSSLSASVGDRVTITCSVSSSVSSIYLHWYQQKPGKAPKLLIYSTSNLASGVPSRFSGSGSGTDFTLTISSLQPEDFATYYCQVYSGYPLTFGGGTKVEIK

variants of: B1; experiment: yeast display scFab, FACS + sequencing
property: non-specific binding call

The cases that follow already have their non-specific binding call on record.
YTRGAASD :: no binding
DETEGDVF :: no binding
YRKKGALY :: binds
FRTGDDLV :: no binding
YRGRSFGV :: binds
AETKGDWD :: no binding

Lookup: Please report the recorded non-specific binding call for SGRGNDGV .
Found: no binding

Lookup: Please report the recorded non-specific binding call for SRRRGALD .
Found: binds

Lookup: Please report the recorded non-specific binding call for FKGRGSLA .
Found: binds

Lookup: Please report the recorded non-specific binding call for SEKKADWA .
Found: no binding

Lookup: Please report the recorded non-specific binding call for VGRTSFGF .
Found: binds

Lookup: Please report the recorded non-specific binding call for AAGRSDLV chain 1 R67H .
Found: no binding

Lookup: Please report the recorded non-specific binding call for YKGRDAWD .
Found: binds

Lookup: Please report the recorded non-specific binding call for DATGGAAA .
Found: no binding

Lookup: Please report the recorded non-specific binding call for ARGKASSY .
Found: no binding

Lookup: Please report the recorded non-specific binding call for VRGAGSWV .
Found: binds

Lookup: Please report the recorded non-specific binding call for YRTRGAGD .
Found: binds
